Kindly supply the reported pIC50 values for the records listed here.
subjectOfTest: hBuChE (Homo sapiens, UniProt P06276)
Sequence (P06276 29-602): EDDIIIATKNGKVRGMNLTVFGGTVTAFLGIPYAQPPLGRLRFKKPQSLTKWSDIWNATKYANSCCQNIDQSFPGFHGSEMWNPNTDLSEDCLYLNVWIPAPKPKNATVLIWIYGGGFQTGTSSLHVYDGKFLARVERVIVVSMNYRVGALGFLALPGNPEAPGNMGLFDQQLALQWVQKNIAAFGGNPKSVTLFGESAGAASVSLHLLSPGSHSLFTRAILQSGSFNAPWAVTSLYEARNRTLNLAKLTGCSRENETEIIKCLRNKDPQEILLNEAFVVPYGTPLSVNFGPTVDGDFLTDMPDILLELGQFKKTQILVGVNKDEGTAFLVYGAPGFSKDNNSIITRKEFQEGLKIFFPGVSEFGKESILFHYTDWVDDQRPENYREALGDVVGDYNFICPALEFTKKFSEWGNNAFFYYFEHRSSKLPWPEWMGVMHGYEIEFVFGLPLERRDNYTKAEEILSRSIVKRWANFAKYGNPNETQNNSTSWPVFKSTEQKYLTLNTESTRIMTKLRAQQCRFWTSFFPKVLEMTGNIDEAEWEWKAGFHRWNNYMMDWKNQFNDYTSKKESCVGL
experimentNotes: biochemical
Type: biochemical
measurementParameters: mean ± SEM of three independent measurements, each in triplicate; read-out: hBuChE IC50
One number for each entry, as −log10 of the molar value.

Given item CCCCCC(=O)OC1CN2Cc3cc4c(cc3C13C=CC(OC)CC23)OCO4 (stereo not drawn) , the value recorded as its pIC50 is 3.56

Batch request: pIC50 per item, same order as input.
1. COC1C=CC23c4cc5c(cc4CN(CC2OC(=O)c2cccc(Cl)c2)C3C1)OCO5 (stereo not drawn)
2. CCC(=O)OC1CN2Cc3cc4c(cc3C13C=CC(OC)CC23)OCO4 (stereo not drawn)

### Response
1. 4.10
2. 3.36
